Cited source: patent US20210388087A1

- tested.system: T1, Human CD137 ECD (human)
- T1 construct: also called 4-1BB
- T1 sequence (chain, as listed by the source limits assumed): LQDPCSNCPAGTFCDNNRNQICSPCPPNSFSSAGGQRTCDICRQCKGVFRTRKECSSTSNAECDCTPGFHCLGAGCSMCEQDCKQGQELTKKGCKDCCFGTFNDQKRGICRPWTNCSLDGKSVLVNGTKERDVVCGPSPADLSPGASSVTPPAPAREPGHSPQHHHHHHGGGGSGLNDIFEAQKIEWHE
- method.summary: single mutant vs template dBBDu183H
observation.type: fold change of affinity

- H183/L072 VH P100eI (antibody, name in Kabat numbering, V domains shown) VH: QVQLVESGGGLVQPGRSLRLSCAASGFTFSNAWMHWVRQAPGKGLEWVAQIKDKGNAYAAYYAPSVKGRFTISRDDSKNSIYLQMNSLKTEDTAVYYCHYVHYASASTVLIAFGVDAWGQGTTVTVSS VL: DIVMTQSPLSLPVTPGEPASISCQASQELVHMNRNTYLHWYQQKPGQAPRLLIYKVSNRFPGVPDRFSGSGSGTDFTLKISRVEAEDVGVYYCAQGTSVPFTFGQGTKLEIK: 0 fold
- H183/L072 VH F27P (antibody, name in Kabat numbering, V domains shown) VH: QVQLVESGGGLVQPGRSLRLSCAASGPTFSNAWMHWVRQAPGKGLEWVAQIKDKGNAYAAYYAPSVKGRFTISRDDSKNSIYLQMNSLKTEDTAVYYCHYVHYASASTVLPAFGVDAWGQGTTVTVSS VL: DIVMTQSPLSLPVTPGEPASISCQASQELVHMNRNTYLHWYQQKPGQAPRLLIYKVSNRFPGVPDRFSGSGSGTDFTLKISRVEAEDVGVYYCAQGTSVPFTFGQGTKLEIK: 0.3 fold
- H183/L072 VH K52bE (antibody, name in Kabat numbering, V domains shown) VH: QVQLVESGGGLVQPGRSLRLSCAASGFTFSNAWMHWVRQAPGKGLEWVAQIKDEGNAYAAYYAPSVKGRFTISRDDSKNSIYLQMNSLKTEDTAVYYCHYVHYASASTVLPAFGVDAWGQGTTVTVSS VL: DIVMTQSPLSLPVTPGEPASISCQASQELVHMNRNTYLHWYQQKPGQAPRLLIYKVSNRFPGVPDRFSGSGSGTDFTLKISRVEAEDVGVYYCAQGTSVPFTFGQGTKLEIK: 0.5 fold
- H183/L072 VH S30F (antibody, name in Kabat numbering, V domains shown) VH: QVQLVESGGGLVQPGRSLRLSCAASGFTFFNAWMHWVRQAPGKGLEWVAQIKDKGNAYAAYYAPSVKGRFTISRDDSKNSIYLQMNSLKTEDTAVYYCHYVHYASASTVLPAFGVDAWGQGTTVTVSS VL: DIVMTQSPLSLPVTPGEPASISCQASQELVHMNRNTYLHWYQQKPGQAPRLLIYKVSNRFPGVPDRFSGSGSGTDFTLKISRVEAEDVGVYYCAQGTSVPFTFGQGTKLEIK: 0.7 fold
- H183/L072 VH Y58I (antibody, name in Kabat numbering, V domains shown) VH: QVQLVESGGGLVQPGRSLRLSCAASGFTFSNAWMHWVRQAPGKGLEWVAQIKDKGNAYAAIYAPSVKGRFTISRDDSKNSIYLQMNSLKTEDTAVYYCHYVHYASASTVLPAFGVDAWGQGTTVTVSS VL: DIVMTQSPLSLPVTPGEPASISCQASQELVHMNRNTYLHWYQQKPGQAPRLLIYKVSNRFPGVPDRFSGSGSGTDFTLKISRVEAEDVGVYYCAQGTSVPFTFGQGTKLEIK: 0.2 fold
